system: Wolbachia pipientis; assay: Anti-Wolbachia Cell-Based Screen; assay type: functional; parameters: scale not given: in the data most compounds retested in dose-response had high values; settings: 5 µM
Screen size: about 48,000 compounds; about 13,000 (27%) showed an effect of 50% or more. The list shows a part of the results.
Percent Effect reference
Give the number; % is assumed, so skip it.

Answered cases to consult:
molecule | target desc | Percent Effect, %
CC(C)n1cc(C(=O)NCCCc2csc(N)n2)cn1 | Wolbachia pipientis | -8.171
CCCc1nnc(NCCc2noc(C3CCC3)n2)o1 | Wolbachia pipientis | 108
COCCN(Cc1cnn(C)c1)c1nc2c(s1)c(C)nn2C | Wolbachia pipientis | -9.354
Cc1cnn(C2CN(Cc3nc(-c4ccco4)no3)C2)c1 | Wolbachia pipientis | -0.024
Cc1cnn(C2CN(Cc3nnc(Cc4ccccc4)o3)C2)c1 | Wolbachia pipientis | -8.725

## Task State its Percent Effect for this molecule: Cc1cc(C#N)ccc1S(=O)(=O)NCc1cnc(N(C)C)n1C
## Result -10.13

## Task State its Percent Effect for this molecule: Cn1cc(CC2CCN(C(=O)NCc3csc(C4CC4)n3)C2)cn1 (centres undefined)
## Result 102.9

## Task State its Percent Effect for this molecule: COc1nonc1NCn1nc(C)cc1C
## Result 152

* * *

system: Wolbachia pipientis; experiment: Anti-Wolbachia Cell-Based Screen; format: functional; parameters: scale not given: in the data most compounds retested in dose-response had high values; details: 5 µM
Screen size: about 48,000 compounds; about 13,000 (27%) showed an effect of 50% or more. The list shows a part of the results.
Percent Effect reference
Give the number; % is assumed, so skip it.

Answered cases to consult:
molecule | target desc | result number
O=C(NCCc1ccccc1)C1CCC(Cn2cnnn2)CC1 (stereo not drawn) | Wolbachia pipientis | 3.007
CN1CCOC(C(=O)Nc2nc(-c3ccc4c(c3)CCC4)n[nH]2)C1 (stereo not drawn) | Wolbachia pipientis | -12.56
CC(=O)Nc1ccc(-n2ccc3nc(N4CCCC4)ncc3c2=O)cc1 | Wolbachia pipientis | 4.031
CN(Cc1cccnc1)[C@@H]1CN(C(=O)NC2CC2)[C@@H]2CCCO[C@H]12.O=C(O)C(F)(F)F.O=C(O)C(F)(F)F | Wolbachia pipientis | 101
O=C(NCCc1ccccc1)C1CCN(C(=O)Cn2cncn2)C1 (stereo not drawn) | Wolbachia pipientis | 175.5
Cn1cc(C(=O)N2CCOc3ccccc32)ccc1=O | Wolbachia pipientis | -9.078
O=C(O)C(F)(F)F.O=C(O)C(F)(F)F.c1cc(CN2Cc3nccn3CC(Cn3cncn3)C2)ccn1 (stereo not drawn) | Wolbachia pipientis | 106.6
COc1ccnc(N2CCN(Cc3ncc(C(C)(C)C)o3)CC2)n1 | Wolbachia pipientis | 7.68

## Task State its Percent Effect for this molecule: O=C(NCCc1ccc(F)cc1)C1CN(C(=O)Cn2cncn2)C1
## Result 163.3

## Task State its Percent Effect for this molecule: Cc1cc(N2CCOC(C(F)(F)F)C2)nc(-c2ccccc2)n1 (stereo not drawn)
## Result 4.501

## Task State its Percent Effect for this molecule: Cc1cc(N2CCOC(CN)C2)nc(-c2ccccc2)n1 (stereo not drawn)
## Result 6.388

## Task State its Percent Effect for this molecule: CN(Cc1cccnc1)[C@@H]1CN(C(=O)c2ccno2)[C@@H]2CCCO[C@H]12.O=C(O)C(F)(F)F.O=C(O)C(F)(F)F
## Result 103.3

## Task State its Percent Effect for this molecule: CN(Cc1cccnc1)[C@@H]1CN(C(=O)c2ccoc2)[C@@H]2CCCO[C@H]12.O=C(O)C(F)(F)F.O=C(O)C(F)(F)F
## Result 116.4

## Task State its Percent Effect for this molecule: CC(=O)NCCn1ccc(-c2ccccn2)n1
## Result 104.5

## Task State its Percent Effect for this molecule: O=C(NC1CC1)[C@H]1COC[C@H]2CN(c3ncc(F)cn3)C[C@H]21
## Result -1.694

## Task State its Percent Effect for this molecule: O=C(NCC1(O)CCCCC1)c1coc(COc2cccc(F)c2)n1
## Result -6.674

* * *

Percent Effect reference
test system: Wolbachia pipientis; assay: Anti-Wolbachia Cell-Based Screen; format: functional; set-up: scale not given: in the data most compounds retested in dose-response had high values; conditions: 5 µM
The campaign covered roughly 48,000 compounds. About 13,000 (27%) showed an effect of 50% or more. The list shows a part of the results.
Give the number; % is assumed, so skip it.

Answered cases to consult:
compound | target desc | measurement unit | result number
Cc1ccc(C(=O)N2CCC(c3nccn3C(C)C)CC2)c(=O)[nH]1 | Wolbachia pipientis | % | 4.246
CN1CCN2C[C@@H](NC(=O)c3nc4ccccc4[nH]3)C[C@H]2C1 | Wolbachia pipientis | % | 10.91
Cc1ccc(F)cc1C(=O)OCC1CCCN1C(N)=O (stereo unspecified) | Wolbachia pipientis | % | 7.06
COc1c(C2CCCN2C(=O)c2cccc(C)n2)c(C)nn1C (stereo unspecified) | Wolbachia pipientis | % | 93.53
COC(=O)c1cccn1C1CCN(C(=O)c2ccc(C)cc2O)CC1 | Wolbachia pipientis | % | 105.5

## Task State its Percent Effect for this compound: O=C(CSCC1CC1)N1CCCC(c2nccn2Cc2ccncc2)C1 (stereo unspecified)
## Result 26.77

## Task State its Percent Effect for this compound: COC(=O)c1cccn1C1CCN(C(=O)c2cn[nH]c2C)CC1
## Result 1.064

## Task State its Percent Effect for this compound: COc1c(C2CCCN2C(=O)c2ccc(N(C)C)nn2)c(C)nn1C (stereo unspecified)
## Result 97.2

## Task State its Percent Effect for this compound: COc1c(C2CCCN2C(=O)c2ccnc(C)n2)c(C)nn1C (stereo unspecified)
## Result 135.1

## Task State its Percent Effect for this compound: COc1c(C2CCCN2C(=O)c2cccnc2N(C)C)c(C)nn1C (stereo unspecified)
## Result 107.7

## Task State its Percent Effect for this compound: Cc1nn(C)c(Cl)c1C1CCCN1C(=O)c1ccc(N(C)C)nn1 (stereo unspecified)
## Result -10.16

* * *

system: Wolbachia pipientis; assay: Anti-Wolbachia Cell-Based Screen; assay type: functional; design: scale not given: in the data most compounds retested in dose-response had high values; details: 5 µM
The whole screen tested about 48,000 compounds, of which about 13,000 (27%) showed an effect of 50% or more. Some of the results follow.
endpoint: Percent Effect (%)
Give the number; % is assumed, so skip it.

molecule | measurement unit | Percent Effect
C1CC(N2C[C@@H]3COC[C@]3(COCC3CCOCC3)C2)C1.O=C(O)C(F)(F)F | % | 101.5
CC(=O)N1C[C@H]2CN(CC3CC3)C(=O)[C@H]2C1 | % | -8.606
CS(=O)(=O)N1C[C@@H]2COC[C@]2(COCC(=O)N2CCCC2)C1 | % | 114.9
CN(C)C(=O)CN1CC[C@H]2CN(S(C)(=O)=O)C[C@@H]2C1=O.O=C(O)C(F)(F)F | % | -14.63
CCCS(=O)(=O)N1C[C@@H]2COC[C@]2(CN2CCOCC2)C1.O=C(O)C(F)(F)F | % | -7.734

## Task State its Percent Effect for this molecule: CS(=O)(=O)N1C[C@@H]2COC[C@]2(CN2CCOCC2)C1.O=C(O)C(F)(F)F
## Result 2.768

## Task State its Percent Effect for this molecule: CN(C)S(=O)(=O)N1C[C@H]2CCC[C@@]2(COCc2cccnc2)C1.O=C(O)C(F)(F)F
## Result 15.15

## Task State its Percent Effect for this molecule: CCS(=O)(=O)N1C[C@H]2CN(CC3CC3)C(=O)[C@H]2C1
## Result 114.7

## Task State its Percent Effect for this molecule: CC(NC(=O)N(C)Cc1cnn(C)c1)c1nncn1C (centres undefined)
## Result -30.3

* * *

system: Wolbachia pipientis; test: Anti-Wolbachia Cell-Based Screen; assay type: functional; design: scale not given: in the data most compounds retested in dose-response had high values; conditions: 5 µM
The campaign covered roughly 48,000 compounds. About 13,000 (27%) showed an effect of 50% or more. This is one part of the list.
Percent Effect reference
Give the number; % is assumed, so skip it.

Answered cases to consult:
compound | measurement unit | result number
O=S(=O)(c1cc(F)ccc1F)N1CCCC1c1ccncc1 (stereo not drawn) | % | 90.37
CCN(CC)C(=O)c1ccn(COc2ccccc2)n1 | % | -3.664
COc1ccc(C2CCCCCN2S(=O)(=O)N(C)C)cc1 (stereo not drawn) | % | -32.58
COC(=O)[C@H]1C[C@@H](O)CCN1S(=O)(=O)c1ccc(F)cc1F | % | -1.254
CCc1[nH]c2c(CNc3cc(C)nc(NC)n3)cc(C)cc2c1C | % | 7.086
CC(C)c1nc(C2CCCN2Cc2ccncc2Cl)no1 (stereo not drawn) | % | 81.18
COc1ccc(C2CCCN2S(=O)(=O)c2cc(F)ccc2F)cc1 (stereo not drawn) | % | 118.1
COc1ccc(C2CCCN2S(=O)(=O)N(C)CC(C)C)cc1 (stereo not drawn) | % | -5.01
CCc1noc(CN2CCCC2c2noc(C3CC3)n2)n1 (stereo not drawn) | % | 2.482
CNS(=O)(=O)c1ccc(CNC(=O)NCC2CCOC2)cc1 (stereo not drawn) | % | 7.061

Now look at this one.
## Task State its Percent Effect for this compound: O=S(=O)(c1ccc(F)cc1Cl)N1CCCC1c1ccncc1 (stereo not drawn)
## Result 106.2
